Listing of entries alongside the reported self-cleavage.
B1: LINE1-full (parent)
chain: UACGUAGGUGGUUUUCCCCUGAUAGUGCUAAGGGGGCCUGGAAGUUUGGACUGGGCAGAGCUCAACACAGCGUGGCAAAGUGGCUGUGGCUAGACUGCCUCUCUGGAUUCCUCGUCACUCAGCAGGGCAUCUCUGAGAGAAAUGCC

Variants of: B1
protocol text: self-cleavage, relative activity (ratio to wild type); higher = more cleavage; in vitro, sequencing; the parent is a self-cleaving ribozyme

{"columns": ["mutant", "self-cleavage"],
 "data": [
  ["U29A A129G", 1.11],
  ["U26A U104C", 1.28],
  ["C99A A107G", 0.61],
  ["U104G", 1.19],
  ["U115A C133U", 1.04],
  ["U9A U23C", 0.93],
  ["U12C U134C", 1.3],
  ["U96C G105A", 0.06],
  ["A77U U143C", 1.04],
  ["U85A A124U", 0.08],
  ["U29C G105A", 1.13],
  ["U112A C113U", 1.6],
  ["A22C U143A", 1.53],
  ["G83A U100C", 1.21],
  ["A43U G44A", 1.61],
  ["U112C A138G", 1.58],
  ["U26C G72A", 0.93],
  ["C18A A24G", 1.11],
  ["U85A", 0.09],
  ["U52A A142G", 1.46],
  ["U13G U100C", 1.17],
  ["U1C G35C", 1.26],
  ["C28U C101U", 1.06],
  ["U14C G70A", 0.26],
  ["U91A A136G", 0.36],
  ["G44A G89C", 0.04],
  ["U20C A69G", 0.66],
  ["A42G G89U", 0.02],
  ["U62A A79U", 0.03],
  ["U5C U104A", 1.28],
  ["A65U A94G", 0.1],
  ["U15C C16U", 1.02],
  ["G40A C131U", 0.76],
  ["U46C G114U", 1.12],
  ["U46C U132C", 1.61],
  ["A94G U119C", 0.38],
  ["A65G U102G", 0],
  ["C19U A77U", 1.3],
  ["G4A U12G", 1.23],
  ["U20A C37G", 2.63]
]}
